Organism: Homo sapiens
ASSAY_COMMENT: Selectivity for human A2B receptor over human A2A receptor
REPORTED_METRIC: Ratio Ki

Completed entries (count: 3):
IN: What measured Ratio Ki goes with O=c1[nH]c2nc(-c3cnn(Cc4noc(-c5ccc(C(F)(F)F)cc5)n4)c3)[nH]c2c(=O)n1CC1CC1 ?
OUT: > 380

IN: What measured Ratio Ki goes with CCn1c(=O)[nH]c2nc(-c3cnn(Cc4cccc(F)c4)c3)[nH]c2c1=O ?
OUT: > 70

IN: What measured Ratio Ki goes with CCCn1c(=O)c2[nH]c(-c3cnn(Cc4cccc(F)c4)c3)nc2n(CCC)c1=O ?
OUT: 18

Others:
IN: What measured Ratio Ki goes with CC(C)Cn1c(=O)[nH]c2nc(-c3cnn(Cc4cccc(F)c4)c3)[nH]c2c1=O ?
OUT: > 200
